The origin of these recorded values is ChEMBL document CHEMBL4622943.

# method: Selectivity index, ratio of IC50 for human MRC5 cells to IC50 for human HepG2 cells assessed as cell growth inhibition by CCK8 assay
# Format: toxicity
# measurement.conditions: MRC5 cells versus HepG2 cells, read-out: Ratio IC50
readout.name: selectivity ratio

Dear colleague, I am looking for the recorded selectivity ratio of the following compound: "CCN(CC)CCCNc1cc(N2CCOCC2)nc(NCc2cccc(-c3ccccc3)c2C)n1" 165

Dear colleague, I am looking for the recorded selectivity ratio of the following compound: "Cc1c(CNc2nc(NCCCN3CCCC3)cc(N3CCOCC3)n2)cccc1-c1ccccc1" 198

Dear colleague, I am looking for the recorded selectivity ratio of the following compound: "Cc1c(CNc2nc(NCCCN(C)C)cc(N3CCOCC3)n2)cccc1-c1ccccc1" 213

Dear colleague, I am looking for the recorded selectivity ratio of the following compound: "Cc1c(CNc2nc(NCCCN3CCCCC3)cc(N3CCOCC3)n2)cccc1-c1ccccc1" 295

Dear colleague, I am looking for the recorded selectivity ratio of the following compound: "CCN(CC)CCCNc1cc(N2CCNCC2)nc(NCc2cccc(-c3ccccc3)c2C)n1" 82

---

# method: Selectivity index, ratio of IC50 for human MRC5 cells to IC50 for human A549 cells assessed as cell growth inhibition by CCK8 assay
# Assay type: toxicity
# measurement.conditions: MRC5 cells versus A549 cells, read-out: Ratio IC50
readout.name: selectivity ratio
Lab note: record the figure alone, no unit after it.

Dear colleague, I am looking for the recorded selectivity ratio of the following molecule: "CCN(CC)CCCNc1cc(N2CCOCC2)nc(NCc2cccc(-c3ccccc3)c2C)n1" 114

Dear colleague, I am looking for the recorded selectivity ratio of the following molecule: "Cc1c(CNc2nc(NCCCN3CCCC3)cc(N3CCOCC3)n2)cccc1-c1ccccc1" 103

Dear colleague, I am looking for the recorded selectivity ratio of the following molecule: "Cc1c(CNc2nc(NCCCN(C)C)cc(N3CCOCC3)n2)cccc1-c1ccccc1" 112

Dear colleague, I am looking for the recorded selectivity ratio of the following molecule: "Cc1c(CNc2nc(NCCCN3CCCCC3)cc(N3CCOCC3)n2)cccc1-c1ccccc1" 185

Dear colleague, I am looking for the recorded selectivity ratio of the following molecule: "CCN(CC)CCCNc1cc(N2CCNCC2)nc(NCc2cccc(-c3ccccc3)c2C)n1" 147

---

# method: Selectivity index, ratio of IC50 for human MRC5 cells to IC50 for human HT-29 cells assessed as cell growth inhibition by CCK8 assay
# Type: toxicity
# measurement.conditions: MRC5 cells versus HT-29 cells, read-out: Ratio IC50
readout.name: selectivity ratio
Lab note: record the figure alone, no unit after it.

Dear colleague, I am looking for the recorded selectivity ratio of the following compound: "Cc1c(CNc2nc(NCCCN(C)C)cc(N3CCOCC3)n2)cccc1-c1ccccc1" 129

Dear colleague, I am looking for the recorded selectivity ratio of the following compound: "CCN(CC)CCCNc1cc(N2CCOCC2)nc(NCc2cccc(-c3ccccc3)c2C)n1" 119

Dear colleague, I am looking for the recorded selectivity ratio of the following compound: "Cc1c(CNc2nc(NCCCN3CCCC3)cc(N3CCOCC3)n2)cccc1-c1ccccc1" 139

Dear colleague, I am looking for the recorded selectivity ratio of the following compound: "CCN(CC)CCCNc1cc(N2CCNCC2)nc(NCc2cccc(-c3ccccc3)c2C)n1" 278

Dear colleague, I am looking for the recorded selectivity ratio of the following compound: "Cc1c(CNc2nc(NCCCN3CCCCC3)cc(N3CCOCC3)n2)cccc1-c1ccccc1" 267
